Tested on: HIV-1 mutant K103N
Assay: microbe, parasite or virus in culture
Settings: Human immunodeficiency virus 1, MT4, read-out: EC50 K103N
pEC50: −log10 of the molar value.
Reported pEC50 values for the following compounds.
readout-type: pEC50

- N#Cc1ccc(Nc2ncc(CO)c(Oc3ccc(-c4ccc(C#N)cc4)cc3F)n2)cc1 [9d]: 7.84
- Cc1cc(-c2ccncc2)cc(C)c1Oc1nc(Nc2ccc(C#N)cc2)ncc1CO [9h]: 7.70
- COc1cc(-c2ccncc2)ccc1Oc1nc(Nc2ccc(C#N)cc2)ncc1CO [9i]: 7.02
- N#Cc1ccc(Nc2ncc(CO)c(Oc3ccc(-c4ccncc4)cc3Cl)n2)cc1 [9k]: 7.45
